# target under test: cellular cereblon (CRBN) (Homo sapiens)
# measurement protocol: NanoBRET Target Engagement Assay, competition with pomalidomide tracer in 293T.116 cells
# assay setup: 2 hours incubation, 293T.116 cells; IP
measured endpoint: NanoBRET TE 293T.116 CRBN 2 hours IP nM

O=C1CCC(c2ccc(S(=O)(=O)F)cc2)C(=O)N1 (stereo not drawn)    *** (<= 1 μM is ***)
COc1ccc(OC2CCC(=O)NC2=O)cc1S(=O)(=O)F (stereo not drawn)    *** (<= 1 μM is ***)
O=C1CCC(c2ccc(N3CCNCC3)c(OS(=O)(=O)F)c2)C(=O)N1 (stereo not drawn)    *** (<= 1 μM is ***)
